Biological target: Opioid Receptor Delta 1 (OPRD1) (Homo sapiens)
Sequence (P41143 whole entry): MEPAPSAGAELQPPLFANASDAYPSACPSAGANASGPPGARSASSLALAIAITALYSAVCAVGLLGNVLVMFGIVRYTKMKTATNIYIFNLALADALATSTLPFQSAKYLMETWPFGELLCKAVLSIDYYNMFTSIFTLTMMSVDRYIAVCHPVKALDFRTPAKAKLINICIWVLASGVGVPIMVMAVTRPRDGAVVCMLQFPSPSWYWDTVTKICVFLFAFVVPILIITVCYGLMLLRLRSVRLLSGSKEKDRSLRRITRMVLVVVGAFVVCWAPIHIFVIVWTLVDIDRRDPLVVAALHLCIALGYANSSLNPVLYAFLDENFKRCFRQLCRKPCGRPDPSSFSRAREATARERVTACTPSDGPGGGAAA
Test: cAMP assay, OPRD1
Where a name gives a salt, the structure may show the parent alone.
parameter.measured: EC50

# annotated cases, reported EC50 shown
- CNC(C)C(=O)c1c[nH]c2ccc(F)cc12 (stereo not drawn) [BK-5F-NM-AMT, hydrochloride]: > 10 µM
- CNC(C)C(=O)c1c[nH]c2ccc(Br)cc12 (stereo not drawn) [BK-5Br-NM-AMT, hydrochloride]: > 10 µM

Now for a further molecule.
Form field EC50, entry CNC(C)C(=O)c1c[nH]c2ccc(Cl)cc12 (stereo not drawn) [BK-5Cl-NM-AMT, hydrochloride] : > 10 µM
